# Experimental Details: Solubility (mg/ml) 37° C.
Structures can show the parent of a compound that is named as a salt.
solubility: recorded values
Numeric answer only, unit µg/mL assumed.

Illustrative cases are given below, each with its answer.
Molecule | Value Units | solubility
CCCn1c(=O)c2[nH]c(-c3ccc(CN)cc3)nc2n(CCC)c1=O.Cl.O | µg/mL | 500
CCCn1c(=O)c2[nH]c(-c3ccc(NC(=O)N(C)C)cc3)nc2n(CCC)c1=O | µg/mL | 80
CCCn1c(=O)c2[nH]c(-c3cccc(OCC(O)CO)c3)nc2n(CCC)c1=O (stereo not shown) | µg/mL | 250

Need solubility of CCCn1c(=O)c2[nH]c(-c3ccc(C(=N)NC)cc3)nc2n(CCC)c1=O [Pr Pr H C(NH)NHMe, hydrochloride hydrate] , thanks.
1000

Need solubility of `CCCn1c(=O)c2[nH]c(-c3ccc(C(=N)N)cc3)nc2n(CCC)c1=O` , thanks.
3000

Need solubility of CCCn1c(=O)c2[nH]c(-c3ccc(O)c(CN(C)C)c3)nc2n(CCC)c1=O [Pr Pr CH2 NMe2 OH, hydrochloride hydrate] , thanks.
25000
